Test: Solubility in four media (excess solid, 37 degrees Celsius, 24 h, HPLC assay)
Assay type: physicochemical
Settings: 0.1 N hydrochloric acid, 37 °C, simulated gastric fluid, thermodynamic from solid, 0.1 N HCl (pH 1), 37 degrees Celsius, read-out: solubility in 0.1 N HCl
value.type: solubility at 24 h (mg/mL)
The reply should be a number in mg/mL, with the unit left off.

solubility at 24 h recorded for this compound, CC[C@H]1OC(=O)[C@H](C)[C@@H](O[C@H]2C[C@@](C)(OC)[C@@H](O)[C@H](C)O2)[C@H](C)[C@@H](O[C@@H]2O[C@H](C)C[C@H](N(C)C)[C@H]2O)[C@](C)(O)C[C@@H](C)CN(C)[C@H](C)[C@@H](O)[C@]1(C)O [azithromycin raw material (dihydrate), azithromycin dihydrate] , is 40.8

---

Assay: Solubility in four media (excess solid, 37 degrees Celsius, 24 h, HPLC assay)
Format: physicochemical
Conditions: 37 °C, thermodynamic from solid, distilled water, 37 degrees Celsius, read-out: solubility in distilled water
value.type: solubility at 24 h (µg/mL)
The reply should be a number in µg/mL, with the unit left off.

solubility at 24 h recorded for this compound, CC[C@H]1OC(=O)[C@H](C)[C@@H](O[C@H]2C[C@@](C)(OC)[C@@H](O)[C@H](C)O2)[C@H](C)[C@@H](O[C@@H]2O[C@H](C)C[C@H](N(C)C)[C@H]2O)[C@](C)(O)C[C@@H](C)CN(C)[C@H](C)[C@@H](O)[C@]1(C)O [azithromycin raw material (dihydrate), azithromycin dihydrate] , is 148

---

Test: Solubility in four media (excess solid, 37 degrees Celsius, 24 h, HPLC assay)
Assay type: physicochemical
Conditions: 37 °C, aqueous buffer, thermodynamic from solid, acetate buffer pH 4.5, 37 degrees Celsius, read-out: solubility in acetate buffer (pH 4.5)
value.type: solubility at 24 h (mg/mL)
The reply should be a number in mg/mL, with the unit left off.

solubility at 24 h recorded for this molecule, CC[C@H]1OC(=O)[C@H](C)[C@@H](O[C@H]2C[C@@](C)(OC)[C@@H](O)[C@H](C)O2)[C@H](C)[C@@H](O[C@@H]2O[C@H](C)C[C@H](N(C)C)[C@H]2O)[C@](C)(O)C[C@@H](C)CN(C)[C@H](C)[C@@H](O)[C@]1(C)O [azithromycin raw material (dihydrate), azithromycin dihydrate] , is 18

---

Assay: Solubility in four media (excess solid, 37 degrees Celsius, 24 h, HPLC assay)
Type: physicochemical
Settings: 37 °C, aqueous buffer, thermodynamic from solid, phosphate buffer pH 6.8, 37 degrees Celsius, read-out: solubility in phosphate buffer (pH 6.8)
value.type: solubility at 24 h (mg/mL)
The reply should be a number in mg/mL, with the unit left off.

solubility at 24 h recorded for this molecule, CC[C@H]1OC(=O)[C@H](C)[C@@H](O[C@H]2C[C@@](C)(OC)[C@@H](O)[C@H](C)O2)[C@H](C)[C@@H](O[C@@H]2O[C@H](C)C[C@H](N(C)C)[C@H]2O)[C@](C)(O)C[C@@H](C)CN(C)[C@H](C)[C@@H](O)[C@]1(C)O [azithromycin raw material (dihydrate), azithromycin dihydrate] , is 8.44

Numbers sourced from patent US20130059805A1.
